Listed here: items and their measured Average OD.
target: GST-PSD95 PDZ domain 3 (human); experiment: G assay
Number in OD, nothing else.

In the examples that follow, each entry is paired with its recorded Average OD.
>>> recorded_number("TTNNNPNSAVNIKKIFTDV (modifications not checked) [KV1.3 PL peptide]")
1
>>> recorded_number("PGQPPKVKSEFNSYSLTGYV (modifications not checked) [claudin 2 PL peptide]")
0.79

Next up:
Quick one: give measured Average OD for DGGARTEDEVQSYPSKHDYV (modifications not checked) [… peptide]
1.05
